Biological target: full-length human ATR protein (Homo sapiens (Human), UniProt Q13535)
Sequence (Q13535 other isoform, or with tags, fused parts or gaps): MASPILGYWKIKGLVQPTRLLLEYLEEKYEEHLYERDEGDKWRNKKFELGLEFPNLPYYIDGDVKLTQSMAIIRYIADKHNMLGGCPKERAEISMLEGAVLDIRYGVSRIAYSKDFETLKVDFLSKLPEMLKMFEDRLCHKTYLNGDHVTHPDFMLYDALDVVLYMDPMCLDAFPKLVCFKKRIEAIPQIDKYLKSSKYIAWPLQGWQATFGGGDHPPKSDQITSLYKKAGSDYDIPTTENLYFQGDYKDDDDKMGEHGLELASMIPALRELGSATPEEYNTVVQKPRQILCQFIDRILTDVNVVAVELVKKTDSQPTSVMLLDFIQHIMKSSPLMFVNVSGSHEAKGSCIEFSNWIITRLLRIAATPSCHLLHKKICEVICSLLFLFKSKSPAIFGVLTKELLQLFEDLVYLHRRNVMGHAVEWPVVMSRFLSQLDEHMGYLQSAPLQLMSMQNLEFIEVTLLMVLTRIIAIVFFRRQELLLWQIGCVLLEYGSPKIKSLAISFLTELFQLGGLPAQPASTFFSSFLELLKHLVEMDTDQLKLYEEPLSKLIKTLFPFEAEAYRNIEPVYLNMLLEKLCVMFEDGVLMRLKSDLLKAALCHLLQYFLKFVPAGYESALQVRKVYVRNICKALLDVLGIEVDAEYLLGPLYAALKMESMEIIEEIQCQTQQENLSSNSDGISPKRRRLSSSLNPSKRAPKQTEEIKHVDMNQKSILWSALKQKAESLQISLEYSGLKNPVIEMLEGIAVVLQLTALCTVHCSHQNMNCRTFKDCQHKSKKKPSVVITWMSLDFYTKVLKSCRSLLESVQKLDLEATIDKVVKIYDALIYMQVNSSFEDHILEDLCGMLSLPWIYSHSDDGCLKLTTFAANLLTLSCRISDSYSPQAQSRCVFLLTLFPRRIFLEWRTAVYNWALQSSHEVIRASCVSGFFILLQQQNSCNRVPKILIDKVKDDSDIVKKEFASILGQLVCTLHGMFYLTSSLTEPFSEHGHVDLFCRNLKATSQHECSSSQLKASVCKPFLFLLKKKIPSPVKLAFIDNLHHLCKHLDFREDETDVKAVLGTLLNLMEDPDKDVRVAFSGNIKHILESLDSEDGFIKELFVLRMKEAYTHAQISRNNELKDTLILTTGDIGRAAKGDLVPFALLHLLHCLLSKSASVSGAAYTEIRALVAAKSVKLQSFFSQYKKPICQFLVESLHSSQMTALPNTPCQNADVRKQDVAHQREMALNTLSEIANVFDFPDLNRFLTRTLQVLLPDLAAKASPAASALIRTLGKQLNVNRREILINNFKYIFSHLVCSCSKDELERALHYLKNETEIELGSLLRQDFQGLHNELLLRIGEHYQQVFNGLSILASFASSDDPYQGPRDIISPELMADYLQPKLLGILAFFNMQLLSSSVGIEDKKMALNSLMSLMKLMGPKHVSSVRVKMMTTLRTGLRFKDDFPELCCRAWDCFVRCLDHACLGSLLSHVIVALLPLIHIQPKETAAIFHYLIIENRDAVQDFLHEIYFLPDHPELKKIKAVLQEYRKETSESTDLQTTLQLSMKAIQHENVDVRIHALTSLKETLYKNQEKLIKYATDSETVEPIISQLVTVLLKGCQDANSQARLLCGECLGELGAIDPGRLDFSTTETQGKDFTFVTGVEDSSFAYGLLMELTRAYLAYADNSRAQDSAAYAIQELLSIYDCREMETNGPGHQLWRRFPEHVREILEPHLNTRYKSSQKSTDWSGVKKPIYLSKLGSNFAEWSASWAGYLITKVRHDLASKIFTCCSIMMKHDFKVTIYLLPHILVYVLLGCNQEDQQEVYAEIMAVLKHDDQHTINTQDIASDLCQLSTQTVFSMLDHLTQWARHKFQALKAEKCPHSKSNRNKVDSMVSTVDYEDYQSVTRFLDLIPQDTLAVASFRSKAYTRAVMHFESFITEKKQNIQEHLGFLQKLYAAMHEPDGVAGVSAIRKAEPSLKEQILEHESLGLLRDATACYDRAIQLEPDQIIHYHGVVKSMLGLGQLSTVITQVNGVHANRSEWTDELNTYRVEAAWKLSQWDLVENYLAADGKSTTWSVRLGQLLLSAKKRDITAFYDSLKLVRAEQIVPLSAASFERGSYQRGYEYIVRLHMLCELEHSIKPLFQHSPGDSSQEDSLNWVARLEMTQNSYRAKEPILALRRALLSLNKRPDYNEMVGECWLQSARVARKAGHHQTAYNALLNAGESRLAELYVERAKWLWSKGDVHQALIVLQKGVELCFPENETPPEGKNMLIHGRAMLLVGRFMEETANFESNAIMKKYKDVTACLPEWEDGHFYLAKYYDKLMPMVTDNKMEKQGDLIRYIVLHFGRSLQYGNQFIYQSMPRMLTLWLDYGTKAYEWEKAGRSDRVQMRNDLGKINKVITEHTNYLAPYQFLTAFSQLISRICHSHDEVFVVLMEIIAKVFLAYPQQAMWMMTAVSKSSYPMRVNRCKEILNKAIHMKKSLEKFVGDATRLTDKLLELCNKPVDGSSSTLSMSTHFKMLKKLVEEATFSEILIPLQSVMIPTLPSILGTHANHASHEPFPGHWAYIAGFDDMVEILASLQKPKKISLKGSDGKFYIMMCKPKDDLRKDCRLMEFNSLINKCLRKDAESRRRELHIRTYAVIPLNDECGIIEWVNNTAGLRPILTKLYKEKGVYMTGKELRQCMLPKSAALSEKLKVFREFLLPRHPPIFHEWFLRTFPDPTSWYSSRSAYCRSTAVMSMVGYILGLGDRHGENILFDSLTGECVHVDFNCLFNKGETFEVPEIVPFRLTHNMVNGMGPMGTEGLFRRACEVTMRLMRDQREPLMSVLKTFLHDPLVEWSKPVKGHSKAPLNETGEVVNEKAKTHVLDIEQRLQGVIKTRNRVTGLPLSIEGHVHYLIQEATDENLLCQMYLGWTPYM
Sequence (Q8WXE1 other isoform, or with tags, fused parts or gaps partner): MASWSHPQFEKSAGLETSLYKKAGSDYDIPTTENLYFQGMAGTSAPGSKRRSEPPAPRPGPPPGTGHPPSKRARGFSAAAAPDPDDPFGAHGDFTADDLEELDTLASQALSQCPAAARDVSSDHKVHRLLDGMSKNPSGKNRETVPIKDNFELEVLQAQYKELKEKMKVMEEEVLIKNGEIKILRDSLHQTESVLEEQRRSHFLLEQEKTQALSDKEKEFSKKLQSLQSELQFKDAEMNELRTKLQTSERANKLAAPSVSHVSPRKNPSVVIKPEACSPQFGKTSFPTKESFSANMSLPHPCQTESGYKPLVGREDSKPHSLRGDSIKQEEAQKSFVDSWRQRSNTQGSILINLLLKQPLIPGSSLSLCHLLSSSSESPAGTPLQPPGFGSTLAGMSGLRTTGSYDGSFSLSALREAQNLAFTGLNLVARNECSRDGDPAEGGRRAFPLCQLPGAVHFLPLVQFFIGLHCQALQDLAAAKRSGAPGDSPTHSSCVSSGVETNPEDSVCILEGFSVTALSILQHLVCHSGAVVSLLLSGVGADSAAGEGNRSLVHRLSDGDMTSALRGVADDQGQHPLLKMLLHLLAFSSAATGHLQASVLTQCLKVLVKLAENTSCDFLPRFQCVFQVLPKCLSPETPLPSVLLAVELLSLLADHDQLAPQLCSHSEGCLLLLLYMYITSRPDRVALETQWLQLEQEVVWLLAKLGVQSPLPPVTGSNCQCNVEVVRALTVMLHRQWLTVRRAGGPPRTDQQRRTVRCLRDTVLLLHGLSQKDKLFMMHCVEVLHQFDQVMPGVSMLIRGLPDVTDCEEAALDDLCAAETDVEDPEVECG
Assay: Binding assay ATR (TR-FRET tracer displacement)
Conditions: tracer A, TR-FRET; read-out: ATR binding (tracer A) IC50
Would you mind telling me the reported IC50 of each entry?
Answer format reminder: number followed by unit.

Query :: I would be grateful if you could share the reported IC50 for Cc1ccc(-c2cc(N3CCOCC3)nc3c(-c4ccn[nH]4)nccc23)cn1 .
Result :: 79.1 nM

Query :: So what's the measured IC50 for this one? c1cncc(-c2cc(N3CCOCC3)nc3c(-c4ccn[nH]4)nccc23)c1
Result :: 162 nM

Query :: Which IC50 value belongs to C[C@@H]1COCCN1c1cc(-c2ccc(F)nc2F)c2ccnc(-c3ccn[nH]3)c2n1 ?
Result :: 30.1 nM

Query :: Sample Cc1cccc(-c2cc(N3CCOCC3)nc3c(-c4ccn[nH]4)nccc23)c1 — what was its IC50?
Result :: 131 nM

Query :: Entry C[C@@H]1COCCN1c1cc(-c2ccc(S(C)(=O)=O)cc2F)c2ccnc(-c3ccn[nH]3)c2n1 has what IC50?
Result :: 7.1 nM

Query :: Give the measured IC50 of Clc1ccc(-c2cc(N3CCOCC3)nc3c(-c4ccn[nH]4)nccc23)cc1 .
Result :: 53.2 nM

Query :: Sample CS(=O)(=O)c1nc(-c2cc(N3CCOCC3)nc3c(-c4ccn[nH]4)nccc23)cs1 — what was its IC50?
Result :: 190 nM

Query :: Quick one: IC50 for C[C@@H]1COCCN1c1cc(-c2ccc(F)cc2F)c2ccnc(-c3ccn[nH]3)c2n1 ?
Result :: 21.3 nM

* * *

Molecular target: full-length human ATR protein (Homo sapiens (Human))
Assay: Binding assay ATR (TR-FRET tracer displacement)
Conditions: tracer A, TR-FRET; read-out: ATR binding (tracer A) IC50
So I've got a bunch of molecules here, and I need their pIC50 values.
A value of pIC50 is the negative decimal logarithm of a concentration given in moles per litre.

Query :: Look up pIC50 for this molecule: CCOC(=O)N=S(C)(=O)c1cccc(-c2cc(N3CCOCC3)nc3c(-c4ccn[nH]4)nccc23)c1 (stereo not drawn)
Result :: 6.85

Query :: Endpoint output: pIC50 of Cc1ncc(-c2cc(N3CCOC[C@H]3C)nc3c(-c4ccn[nH]4)nccc23)s1 . Value?
Result :: 7.96

Query :: Entry under review: C[C@@H]1COCCN1c1cc(-c2cncc(Cl)c2)c2ccnc(-c3ccn[nH]3)c2n1 . Reported pIC50?
Result :: 7.67

Query :: Fill blank: measured pIC50 of the molecule C[C@@H]1COCCN1c1cc(-c2cnn(CCO)c2)c2ccnc(-c3ccn[nH]3)c2n1 is ____.
Result :: 7.55

Query :: # get_value(readout='pIC50', item= COc1ccsc1-c1cc(N2CCOC[C@H]2C)nc2c(-c3ccn[nH]3)nccc12 )
Result :: 7.67

Query :: GET /values?readout=pIC50&item= c1cc(-c2cc(N3CCOCC3)nc3c(-c4ccn[nH]4)nccc23)c2cccnc2c1
Result :: 6.92

Query :: Query: pIC50; subject: CCOP(C)(=O)c1cc(N2CCOC[C@H]2C)nc2c(-c3ccn[nH]3)nccc12 (stereo partly drawn)
Result :: 7.76

Query :: Find the recorded pIC50 belonging to CC(C)Oc1cc(N2CCOC[C@@H]2C)nc2c(-c3cc[nH]n3)nccc12 and report it.
Result :: 6.00

Query :: Field request: pIC50 | item: C[C@@H]1COCCN1c1cc(N2CCC(CO)CC2)c2ccnc(-c3ccn[nH]3)c2n1
Result :: 8.18

Query :: Which pIC50 value belongs to N#Cc1cc(N2CCOCC2)nc2c(-c3cc[nH]n3)nccc12 ?
Result :: 6.45

Query :: Data request, read-out pIC50, for Cc1ccc(C)c(-c2cc(N3CCOCC3)nc3c(-c4ccn[nH]4)nccc23)c1
Result :: 7.24

Query :: Look at this molecule and give its reported pIC50. C[C@@H]1COCCN1c1cc(-c2ccc(S(C)(=O)=O)cc2)c2ccnc(-c3cc[nH]n3)c2n1
Result :: 7.81

Query :: Bench note: what pIC50 did CC(=O)Nc1cccc(-c2cc(N3CCOCC3)nc3c(-c4ccn[nH]4)nccc23)c1 show?
Result :: 6.88

Query :: So what does the record say about pIC50 for C[C@@H]1COCCN1c1cc(N=S(C)(=O)C(C)(C)C)c2ccnc(-c3ccn[nH]3)c2n1 (stereo partly drawn) ?
Result :: 7.57

Query :: Give the measured pIC50 of C[C@@H]1COCCN1c1cc(-c2ccnn2C2COC2)c2ccnc(-c3ccn[nH]3)c2n1 .
Result :: 7.57

Query :: Entry C[C@@H]1COCCN1c1cc(C2CCSCC2)c2ccnc(-c3ccn[nH]3)c2n1 has what pIC50?
Result :: 8.39

Query :: Please report the recorded pIC50 for Cc1csc(-c2cc(N3CCOC[C@H]3C)nc3c(-c4ccn[nH]4)nccc23)c1 .
Result :: 7.69

Query :: Which pIC50 value belongs to c1cc(-c2nccc3c(-c4cnc(NC5CC5)nc4)cc(N4CCOCC4)nc23)[nH]n1 ?
Result :: 6.76

Query :: Look up pIC50 for this molecule: C[C@@H]1COCCN1c1cc(-c2cc(Cl)cnc2F)c2ccnc(-c3ccn[nH]3)c2n1
Result :: 7.55

Query :: Entry Cc1cc(COc2cc(N3CCOCC3)nc3c(-c4ccn[nH]4)nccc23)no1 : reported pIC50 = ?
Result :: 6.70

Query :: Recorded pIC50 for C[C@H]1CN(c2cc(N3CCOCC3)nc3c(-c4ccn[nH]4)nccc23)CCO1 , please?
Result :: 6.77

Query :: Need pIC50, item C[C@@H]1COCCN1c1cc(N2CCn3ccnc3C2)c2ccnc(-c3ccn[nH]3)c2n1
Result :: 7.96

Query :: # query: pIC50 of entry C[C@@H]1COCCN1c1cc(-c2cn[nH]c2)c2ccnc(-c3ccn[nH]3)c2n1
Result :: 7.90

Query :: What value of measured pIC50 is listed for CC(C)Oc1cc(N2[C@H](C)COC[C@@H]2C)nc2c(-c3ccn[nH]3)nccc12 ?
Result :: 6.38

Query :: Record request: pIC50 value, item OCc1cc(N2CCOCC2)nc2c(-c3ccn[nH]3)nccc12
Result :: 6.30

Query :: Look up pIC50 for this molecule: CCNC(=O)N=S(C)(=O)c1ccc(-c2cc(N3CCOCC3)nc3c(-c4ccn[nH]4)nccc23)cc1 (stereo not drawn)
Result :: 6.94

Query :: Reported pIC50, molecule CC(C)[S+]([O-])c1cc(N2CCOCC2)nc2c(-c3ccn[nH]3)nccc12 (stereo not drawn) : ____
Result :: 7.14

Query :: Param item = C[C@@H]1COCCN1c1cc(N=S2(=O)CCOCC2)c2ccnc(-c3ccn[nH]3)c2n1 ; retrieve measured pIC50.
Result :: 7.56

Query :: Field request: pIC50 | item: CCOP(=O)(CC(C)C)c1cc(N2CCOC[C@H]2C)nc2c(-c3ccn[nH]3)nccc12 (stereo partly drawn)
Result :: 7.12

Query :: # lookup: pIC50 of O=S(=O)(c1ccccc1)n1c(-c2cc(N3CCOCC3)nc3c(-c4ccn[nH]4)nccc23)cc2ccccc21
Result :: 6.32

Query :: Entry C1=C(c2cc(N3CCOCC3)nc3c(-c4ccn[nH]4)nccc23)CCNC1 has what pIC50?
Result :: 6.73

Query :: Form field: reported pIC50 of Cc1cc(-c2cc(N3CCOCC3)nc3c(-c4ccn[nH]4)nccc23)cnc1F
Result :: 7.28

Query :: // query pIC50 value for entry c1cc(-c2cc(N3CCOCC3)nc3c(-c4ccn[nH]4)nccc23)c2ccncc2c1
Result :: 7.02

* * *

Biological target: full-length human ATR protein (Homo sapiens (Human), UniProt Q13535)
Experiment: Binding assay ATR (TR-FRET tracer displacement)
Details: tracer A, TR-FRET; read-out: ATR binding (tracer A) IC50
For each of the compounds below, state its pIC50.
pIC50 is a log-scale quantity: -log10 of the concentration expressed in molar.

Query :: Fill in: pIC50 of c1ccc2ncc(-c3cc(N4CCOCC4)nc4c(-c5ccn[nH]5)nccc34)cc2c1 is ___
Result :: 7.07

Query :: Entry CSc1ncc(-c2cc(N3CCOCC3)nc3c(-c4ccn[nH]4)nccc23)cn1 : reported pIC50 = ?
Result :: 6.83

Query :: Tell me the measured pIC50 of C[C@@H]1COCCN1c1cc(N2CCN(C)C(=O)C2)c2ccnc(-c3ccn[nH]3)c2n1 , please.
Result :: 7.04

Query :: Name the reported pIC50 value associated with the compound Cc1cc(-c2cc(N3CCOC[C@H]3C)nc3c(-c4ccn[nH]4)nccc23)on1
Result :: 8.32

Query :: Request the reported pIC50 associated with C[C@@H]1COCCN1c1cc(-c2ccccc2F)c2ccnc(-c3ccn[nH]3)c2n1
Result :: 8.05

Query :: Which pIC50 value is on record for CN(C)c1cc(N2CCOCC2)nc2c(-c3ccn[nH]3)nccc12 ?
Result :: 6.39

Query :: Entry CC(C)Oc1cc(N2[C@H](C)COC[C@H]2C)nc2c(-c3ccn[nH]3)nccc12 : reported pIC50 = ?
Result :: 6.14

Query :: Quick one: pIC50 of CC(C)Oc1cc(N2CCOC[C@H]2C)nc2c(-c3cc[nH]n3)nccc12 ?
Result :: 7.42
